- System: HEK293
- method notes: Cytotoxic Profiling of Annotated Libraries Using Quantitative High-Throughput Screening (AID 1296008); also: % is scaled to controls: 0 for no effect and ±100 for the full control effect
- condition context: Five cell lines viability, CellTiter-Glo ATP luminescence, 48-72 h; stronger effect = lower value
Results filed as inconclusive are left out.
reported metric: max response (%)

molecule: CC1CC2(O)OC(=O)C3=C2C(CCC3)[C@@]12C[C@@H](c1ccoc1)OC2=O (stereo not given in full)
assay result: -0.207
--
molecule: CC(C)c1ccc2c(c1)[C@H](O)CC1[C@@](C)(C(=O)O)CCC[C@]21C (stereo not given in full)
assay result: -18.5
--
molecule: CC1(C)C(=O)N2c3ccccc3C(O)(CC(C(=O)O)n3cnc4ccccc4c3=O)C2N1O (stereo not given)
assay result: -0.978
--
molecule: COC(=O)Cn1nc(-c2cccc(OC)c2)c2ccccc21
assay result: -5.92
--
molecule: O=C(O)/C=C/c1ccc2occc2c1O[C@@H]1O[C@H](CO)[C@@H](O)[C@H](O)[C@H]1O
assay result: 1.57
--
molecule: CCC(CC)CC1(C(=O)Nc2ccccc2SC(=O)C(C)C)CCCCC1
assay result: -10.7
--
molecule: CC(=O)OCC(Cc1ccccc1)NC(=O)C(Cc1ccccc1)NC(=O)c1ccccc1 (stereo not given)
assay result: -2.31
--
molecule: OC[C@@]1(O)CO[C@@H](OC[C@H]2O[C@@H](Oc3ccccc3)[C@H](O)[C@@H](O)[C@@H]2O)[C@@H]1O
assay result: -6.8
--
molecule: CC(=O)OCC1=C[C@@H]2OC(=O)C3=CO[C@@H](O[C@@H]4O[C@H](CO)[C@@H](O)[C@H](O)[C@H]4O)[C@H]1[C@@H]32
assay result: 4.59
--
molecule: C[C@@H]1O[C@@H](O[C@@H]2[C@@H](O)[C@H](O[C@H]3[C@H](O[C@H]4CC[C@@]5(C)C(CC[C@]6(C)C5CC=C5[C@@H]7CC(C)(C)CC[C@]7(C(=O)O[C@@H]7O[C@H](CO)[C@@H](O)[C@H](O)[C@H]7O)CC[C@]56C)C4(C)C)O[C@H](C(=O)O)[C@@H](O)[C@@H]3O)OC[C@H]2O)[C@H](O)[C@H](O)[C@H]1O (stereo not given in full)
assay result: -0.54
--
molecule: CC/C=C\CC1C(CC(=O)O)CCC1OC1OC(CO)C(O)C(O)C1O (stereo not given)
assay result: 0.263
--
molecule: CC1CCCCCCCc2cc(O)cc(O)c2C(=O)O1 (stereo not given)
assay result: 0.839
--
molecule: C[C@@H]1O[C@@H](OC[C@H]2O[C@@H](OCc3ccccc3)[C@H](O)[C@@H](O)[C@@H]2O)[C@H](O)[C@H](O)[C@H]1O
assay result: -5.01
--
molecule: CC(=O)O[C@@H]1C[C@@H](C)[C@](O)(CCC2=CC(=O)OC2)[C@@]2(C)CCCC(C)(C)C12 (stereo not given in full)
assay result: -5.82
--
molecule: Oc1ccc2c(-c3c(-c4ccccn4)nn4c3CCC4)ccnc2c1
assay result: -21.7
--
molecule: C[C@]1(OC(=O)/C=C/c2ccccc2)C[C@@H](O)[C@]2(O)C=CO[C@@H](O[C@@H]3O[C@H](CO)[C@@H](O)[C@H](O)[C@H]3O)[C@@H]21
assay result: 3.08
--
molecule: C=C1CC[C@@H]2[C@@](C)(CO[C@@H]3O[C@H](CO)[C@@H](O)[C@H](O)[C@H]3O)[C@H](O)CC[C@@]2(C)[C@@H]1CC/C(C)=C/CO[C@@H]1O[C@H](CO)[C@@H](O)[C@H](O)[C@H]1O
assay result: -9.45
--
molecule: C=CC(C)(O)CCC1C(C)(O)CCC2C(C)(C)CCCC21C (stereo not given)
assay result: -3.72
--
molecule: O=C(/C=C/c1ccc(O)cc1)O[C@H]1[C@H](OC2CCCCC2O)O[C@H](CO)[C@@H](O)[C@@H]1O (stereo not given in full)
assay result: 2.98
--
molecule: CCC(C)C(C(=O)O)N1Cc2c(OCC=C(C)C)c(C)c(OC)c(C(=O)O)c2C1=O (stereo not given)
assay result: -3.21
--
molecule: CC1(C)O[C@H]2CC(=O)OC[C@@]23C1=C(O)C(=O)[C@]1(C)C3CC[C@@]2(C)[C@H](c3ccoc3)OC(=O)[C@H]3O[C@]321 (stereo not given in full)
assay result: 1.52
--
molecule: CC(=O)OC/C(=C/C(=O)O)CC[C@@H]1C(CO)=CC[C@@H]2C(C)(C)CCC[C@@]12C
assay result: 1.68
--
molecule: C/C(=C\C(=O)C(C)C1CCC2C3=C(CCC21C)C1(C)CCC(=O)C(C)(C)C1(O)CC3)C(C)(C)O (stereo not given)
assay result: -15.6
--
molecule: COc1c2cc(c(O[C@@H]3O[C@H](CO)[C@@H](O)[C@H](O)[C@H]3O)c1OC)CCCCC(O)CCc1ccc(O)c-2c1 (stereo not given in full)
assay result: -2.25
--
molecule: COc1cc(/C=C/CO[C@@H]2O[C@H](CO)[C@@H](O)[C@H](O)[C@H]2O)cc(OC)c1O[C@@H]1O[C@H](CO)[C@@H](O)[C@H](O)[C@H]1O
assay result: -7.31
--
molecule: C[C@@H]1C[C@@H](O)[C@@]23CO[C@]2(CO)CCC[C@@H]3[C@@]12C[C@@H](c1ccoc1)OC2=O
assay result: 2.85
--
molecule: C=C1C(=O)O[C@@H]2/C=C(\C)CC/C=C(\C(=O)O[C@@H]3O[C@H](CO)[C@@H](O)[C@H](O)[C@H]3O)CC[C@@H]12
assay result: -0.494
--
molecule: COC(=O)C1(O)C(OC(C)=O)CCC2C3(CC(c4ccoc4)OC3=O)C(C)=CCC21C(=O)OC (stereo not given)
assay result: 4.98
--
molecule: C=C1C(O)C(O)C2(CC3C(C)=CCC4C(C)(C(=O)O)CCCC34C)OC2C1O (stereo not given)
assay result: 1.46
--
molecule: CCC(=O)OCC(=O)[C@@]1(OC(=O)CC)[C@@H](C)C[C@H]2[C@@H]3CCC4=CC(=O)C=C[C@]4(C)[C@@]3(F)[C@@H](O)C[C@@]21C
assay result: -7.33
